# Mean number severity values compiled below
Test system: gastric mucosa
Experiment: gastric tolerance (ulcerogenic activity)
Settings: 200 mg/kg, orally, four consecutive days; severity scale 0-5
Give a plain numeric answer without units written out.

> print(dat)
                                   compound    assay.system  value.measured
1  COc1ccc(OC)c(NC(=O)CNC(=O)Cc2ccc(C(=O)c3ccc(C)cc3)n2C)c1 [Compound 1g]  gastric mucosa               2

The compound listed as COc1ccccc1NC(=O)CNC(=O)Cc1ccc(C(=O)c2ccc(C)cc2)n1C [Compound 1d] shows Mean number severity equal to 2

---

Tested on: gastric mucosa
Assay: gastric tolerance (ulcerogenic activity)
Conditions: 100 mg/kg, orally, four consecutive days
MEASURE: Mean number lesions

Use the examples below as a reference point.
> print(dat)
                                   compound              measure  value.measured
1  Cc1ccc(C(=O)c2ccc(CC(=O)O)n2C)cc1 [Tolmetin Na.2H2 O, reference compound]  Mean number lesions             2.5
2  COc1ccccc1NC(=O)CNC(=O)Cc1ccc(C(=O)c2ccc(C)cc2)n1C  Mean number lesions               1
3  Cc1ccc(C(=O)c2ccc(CC(=O)NCC(=O)Nc3cccc(C)c3C)n2C)cc1  Mean number lesions               2

The compound listed as "COc1ccc(OC)c(NC(=O)CNC(=O)Cc2ccc(C(=O)c3ccc(C)cc3)n2C)c1" shows Mean number lesions equal to 2

The compound listed as "Cc1ccc(C(=O)c2ccc(CC(=O)NCC(=O)Nc3cccc(Cl)c3)n2C)cc1" shows Mean number lesions equal to 2
